System: primary human melanoma cultures
Assay comment: cells
Test settings: Homo sapiens, read-out: mean IC50
Protocol: Acridine carboxamide hydrochloride, synthesised in the Cancer Research Laboratory (Atwell G.J., et al., J.Med. Chem. 1987, 30, 664-669), and amsacrine isethionate, obtained from the Parke-Davis Division of the Warner-Lambert Company, Ann Arbor, USA, were dissolved in 50% v/v aqueous ethanol to make stock solutions of 2-5 mmol/l and stored at -20°C. […]
Observed property: IC50

Below, each entry is followed by its recorded IC50 result.
Compound: CN(C)CCNC(=O)c1cccc2cc3ccccc3nc12
IC50: 590 nM
--
Compound: COc1cccc2c1C(=O)c1c(O)c3c(c(O)c1C2=O)C[C@@](O)(C(=O)CO)C[C@@H]3O[C@H]1C[C@H](N)[C@H](O)[C@H](C)O1
IC50: 56 nM
--
Compound: COc1cc(NS(C)(=O)=O)ccc1Nc1c2ccccc2nc2ccccc12
IC50: 128 nM

Here is another compound to look at.
Identify the reported IC50 for the following entry. COc1cc([C@@H]2c3cc4c(cc3[C@@H](O[C@@H]3O[C@@H]5CO[C@@H](C)O[C@H]5[C@H](O)[C@H]3O)[C@H]3COC(=O)[C@H]23)OCO4)cc(OC)c1O [etoposide] 2200 nM

----------
Assay comment: Pharmacokinetic and tissue distribution studies (tritium label, HPLC)
Type: in vivo
Test settings: ip, 400 umol/kg; plasma; intraperitoneal 400 µmol/kg; read-out: plasma AUC
Observed property: AUC
# output: number + unit

Identify the reported AUC for the following entry. CN(C)CCNC(=O)c1cccc2cc3ccccc3nc12 [DACA] 26.6 µM·h

----------
System: MOLT-4
Assay comment: Growth inhibition of leukaemia line, continuous exposure, MTT staining
Assay type: cell-based
Test settings: Homo sapiens
Observed property: pIC50
Answers are plain numbers, as −log10 of the molar value.

Identify the reported pIC50 for the following entry. "CN(C)CCNC(=O)c1cccc2cc3ccccc3nc12" 6.54

----------
Assay comment: Pharmacokinetic and tissue distribution studies (tritium label, HPLC)
Assay type: in vivo
Test settings: ip, 400 umol/kg; liver; intraperitoneal 400 µmol/kg; read-out: AUC
Observed property: AUC (µM·h)
Answers are plain numbers, in µM·h.

Identify the reported AUC for the following entry. "CN(C)CCNC(=O)c1cccc2cc3ccccc3nc12" 547

----------
Assay comment: Pharmacokinetic and tissue distribution studies (tritium label, HPLC)
Type: in vivo
Test settings: ip, 400 umol/kg; kidney; intraperitoneal 400 µmol/kg; read-out: AUC
Observed property: AUC (µM·h)
Answers are plain numbers, in µM·h.

Identify the reported AUC for the following entry. CN(C)CCNC(=O)c1cccc2cc3ccccc3nc12 [DACA] 492

----------
Assay comment: Pharmacokinetic and tissue distribution studies (tritium label, HPLC)
Type: in vivo
Test settings: ip, 400 umol/kg; brain; intraperitoneal 400 µmol/kg; read-out: AUC
Observed property: AUC (µM·h)
Answers are plain numbers, in µM·h.

Identify the reported AUC for the following entry. CN(C)CCNC(=O)c1cccc2cc3ccccc3nc12 [DACA] 218

----------
Assay comment: Pharmacokinetic and tissue distribution studies (tritium label, HPLC)
Assay type: in vivo
Test settings: ip, 400 umol/kg; heart; intraperitoneal 400 µmol/kg; read-out: AUC
Observed property: AUC
# output: number + unit

Identify the reported AUC for the following entry. "CN(C)CCNC(=O)c1cccc2cc3ccccc3nc12" 147 µM·h

----------
System: primary human melanoma cultures
Assay comment: cells
Test settings: Homo sapiens, read-out: IC50 values
Observed property: IC50

Identify the reported IC50 for the following entry. "CN(C)CCNC(=O)c1cccc2cc3ccccc3nc12" 200 to 1500 nM

----------
Test system: human Jurkat T cell leukaemia line, tetraploid (B1)
Assay comment: Growth inhibition of leukaemia line, continuous exposure, MTT staining
Format: cell-based
Test settings: continuous drug exposure
Observed property: IC50 (nM)
Numbers only, in nM.

Identify the reported IC50 for the following entry. "CN(C)CCNC(=O)c1cccc2cc3ccccc3nc12" 380

----------
Test system: human cell lines
Assay comment: Cytotoxicity under continuous drug exposure, mean over human cell lines
Type: cell-based
Test settings: continuous drug exposure over approx. 5 cell doubling times, read-out: mean IC50 value for human cell lines
Observed property: IC50 (nM)
Numbers only, in nM.

Smiles representation: CN(C)CCNC(=O)c1cccc2ccc(-c3ccncc3)nc12
Value: 2000

Here is another compound to look at.
Identify the reported IC50 for the following entry. "CN(C)CCNC(=O)c1cccc2cc3ccccc3nc12" 1300
